- System: Escherichia coli K-12
- run_description: Antibacterial activity (MIC) against Gram-negative strains, microdilution
- Assay type: cell-based
- conditions_used: K12, MIC after 24 h, read-out: MIC (Gram-nagative) K-12
metric_name: MIC

Answered cases to consult:
{"columns": ["molecule", "MIC"],
 "data": [
  ["Cc1ccc(CCC(=O)OCC2OC(Oc3c(-c4ccc(O)c(O)c4)oc4cc(O)cc(O)c4c3=O)C(OC(=O)CCc3ccc(C)cc3)C(O)C2O)cc1 (centres unmarked) [Compound 14l]", "> 128 µg/mL"],
  ["CCCc1ccc(C(=O)OC[C@H]2O[C@@H](Oc3c(-c4ccc(O)c(O)c4)oc4cc(O)cc(O)c4c3=O)[C@H](OC(=O)c3ccc(CCC)cc3)[C@@H](O)[C@H]2O)cc1 [Compound 14b]", "> 128 µg/mL"],
  ["O=c1c(O)c(-c2ccc(O)c(O)c2)oc2cc(O)cc(O)c12 [Quercetin, quercetin, reference compound]", "64 µg/mL"],
  ["CCOc1ccc(C(=O)OC[C@H]2O[C@@H](Oc3c(-c4ccc(O)c(O)c4)oc4cc(O)cc(O)c4c3=O)[C@H](OC(=O)c3ccc(OCC)cc3)[C@@H](O)[C@H]2O)cc1 [Compound 14a]", "> 128 µg/mL"]
]}

Reading of MIC for Cc1ccc(CC(=O)OC[C@H]2O[C@@H](Oc3c(-c4ccc(O)c(O)c4)oc4cc(O)cc(O)c4c3=O)[C@H](OC(=O)Cc3ccc(C)cc3)[C@@H](O)[C@H]2O)cc1 [Compound 14d] with Escherichia coli K-12: > 128 µg/mL

----------
- experimental_system: DNA gyrase of Escherichia coli (Escherichia coli, UniProt P0AES4+P0AES6)
- Construct: purchased John Innes Enterprises #K0001
- run_description: DNA gyrase inhibition (supercoiling assay kit), Exp. Ex. 1-2
- Format: biochemical
- conditions_used: E. coli DNA gyrase supercoiling, relaxed pBR322, 37° C., 30 minutes
For each of the molecules below, state its Gyrase inhibitory activity IC50.
Give bare numbers, in µg/mL.

Answered cases to consult:
{"columns": ["molecule", "Gyrase inhibitory activity IC50 [µg/mL]"],
 "data": [
  ["O=C(O[C@H]1[C@H](Oc2c(-c3ccc(O)c(O)c3)oc3cc(O)cc(O)c3c2=O)O[C@H](CO)[C@@H](O)[C@@H]1OC(=O)c1ccc(F)cc1)c1ccc(F)cc1 [Compound 15g]", 4.25],
  ["CCOc1ccc(CCC(=O)O[C@H]2[C@H](Oc3c(-c4ccc(O)c(O)c4)oc4cc(O)cc(O)c4c3=O)O[C@H](CO)[C@@H](O)[C@@H]2OC(=O)CCc2ccc(OCC)cc2)cc1 [Compound 15b]", 9.23],
  ["O=C(CCc1ccc(F)cc1)O[C@H]1[C@H](Oc2c(-c3ccc(O)c(O)c3)oc3cc(O)cc(O)c3c2=O)O[C@H](CO)[C@@H](O)[C@@H]1OC(=O)CCc1ccc(F)cc1 [Compound 15d]", 0.22],
  ["Cc1ccc(CCC(=O)O[C@H]2[C@H](Oc3c(-c4ccc(O)c(O)c4)oc4cc(O)cc(O)c4c3=O)O[C@H](CO)[C@@H](O)[C@@H]2OC(=O)CCc2ccc(C)cc2)cc1 [Compound 15c]", 3.50]
]}

Reading of Gyrase inhibitory activity IC50 for O=C(CCc1ccc(O)cc1)O[C@H]1[C@H](Oc2c(-c3ccc(O)c(O)c3)oc3cc(O)cc(O)c3c2=O)O[C@H](CO)[C@@H](O)[C@@H]1OC(=O)CCc1ccc(O)cc1 [Compound 15a] with DNA gyrase of Escherichia coli (Escherichia coli, UniProt P0AES4+P0AES6): 2.54

----------
- Tested on: Streptococcus pneumoniae R6
- run_description: In vitro infectivity assay (MIC), Exp. Ex. 2-1
- Assay type: cell-based
- conditions_used: Gram-positive; microdilution, MIC after 24 h
Lab note - cut at 2 µg/mL for MIC S. Pneumoniae R6: rule met if strictly below, rule not met if not.

The following compounds have reported results that may help.
{"columns": ["compound", "experimental_system", "group_label"],
 "data": [
  ["CC(=O)OC[C@H]1O[C@@H](Oc2cc(O)c3c(=O)c(O[C@@H]4O[C@H](COC(C)=O)[C@H](OC(C)=O)[C@H](OC(C)=O)[C@H]4OC(C)=O)c(-c4ccc(O)c(O)c4)oc3c2)[C@H](OC(C)=O)[C@@H](OC(C)=O)[C@H]1OC(C)=O", "Streptococcus pneumoniae R6", "rule not met"],
  ["O=C(CCCCc1ccc(F)cc1)OC[C@H]1O[C@@H](Oc2c(-c3ccc(O)c(O)c3)oc3cc(O)cc(O)c3c2=O)[C@H](OC(=O)CCCCc2ccc(F)cc2)[C@@H](O)[C@H]1O [Compound 14k]", "Streptococcus pneumoniae R6", "rule not met"],
  ["O=C(CCc1ccc(F)cc1)OC[C@H]1O[C@@H](Oc2c(-c3ccc(O)c(O)c3)oc3cc(O)cc(O)c3c2=O)[C@H](OC(=O)CCc2ccc(F)cc2)[C@@H](O)[C@H]1O [Compound 14m]", "Streptococcus pneumoniae R6", "rule not met"]
]}

## Input I wonder whether Cc1ccc(CCC(=O)OC[C@H]2O[C@@H](Oc3c(-c4ccc(O)c(O)c4)oc4cc(O)cc(O)c4c3=O)[C@H](OC(=O)CCc3ccc(C)cc3)[C@@H](O)[C@H]2O)cc1 [Compound 14h] has MIC S. Pneumoniae R6 below 2 µg/mL. Can you tell?
## Output rule met

----------
For each of the compounds below, state its MIC MRSA OM584.
- System: Methicillin-resistant S. aureus OM584
- run_description: In vitro infectivity assay (MIC), Exp. Ex. 2-1
- Format: cell-based, Staphylococcus aureus
- conditions_used: Gram-positive; microdilution, MIC after 24 h
Numbers only, in µg/mL.

{"columns": ["compound", "metric_name", "assay_result"],
 "data": [
  ["Cc1ccc(CCC(=O)OC[C@H]2O[C@@H](Oc3c(-c4ccc(O)c(O)c4)oc4cc(O)cc(O)c4c3=O)[C@H](OC(=O)CCc3ccc(C)cc3)[C@@H](O)[C@H]2O)cc1 [Compound 14h]", "MIC MRSA OM584", 0.25],
  ["O=C(CCCc1ccc(F)cc1)OC[C@H]1O[C@@H](Oc2c(-c3ccc(O)c(O)c3)oc3cc(O)cc(O)c3c2=O)[C@H](OC(=O)CCCc2ccc(F)cc2)[C@@H](O)[C@H]1O [Compound 14j]", "MIC MRSA OM584", 2],
  ["CC(=O)OC[C@H]1O[C@@H](Oc2c(-c3ccc(O)c(O)c3)oc3cc(O)cc(O)c3c2=O)[C@H](OC(C)=O)[C@@H](OC(C)=O)[C@H]1OC(C)=O", "MIC MRSA OM584", 128],
  ["CCOc1ccc(CCC(=O)OC[C@H]2O[C@@H](Oc3c(-c4ccc(O)c(O)c4)oc4cc(O)cc(O)c4c3=O)[C@H](OC(=O)CCc3ccc(OCC)cc3)[C@@H](O)[C@H]2O)cc1 [Compound 14g]", "MIC MRSA OM584", 1]
]}

// next item, MIC MRSA OM584 requested
Per the records, this compound ( CC(=O)OC[C@H]1O[C@@H](Oc2cc(O)c3c(=O)c(O[C@@H]4O[C@H](COC(C)=O)[C@H](OC(C)=O)[C@H](OC(C)=O)[C@H]4OC(C)=O)c(-c4ccc(O)c(O)c4)oc3c2)[C@H](OC(C)=O)[C@@H](OC(C)=O)[C@H]1OC(C)=O ) has MIC MRSA OM584 equal to 32

----------
- Tested on: MRSA OM58
- run_description: In vitro infectivity assay (MIC), broth dilution, Exp. Ex. 1-1
- Assay type: cell-based, Staphylococcus aureus
- conditions_used: Staphylococcus aureus; MRSA OM58; Mueller-Hinton broth, 35° C., 24 hours; read-out: MIC MRSA OM58
For each of the compounds below, state its MIC.
One number for each entry, in µg/mL.

Please look at the items below and tell me MIC for each one, in order.
1. CCCc1ccc(C(=O)O[C@H]2[C@H](Oc3c(-c4ccc(O)c(O)c4)oc4cc(O)cc(O)c4c3=O)O[C@H](CO)[C@@H](O)[C@@H]2OC(=O)c2ccc(CCC)cc2)cc1 [Compound 15f]
2. CC(=O)OC[C@H]1O[C@@H](Oc2c(-c3ccc(O)c(O)c3)oc3cc(O)cc(O)c3c2=O)[C@H](OC(C)=O)[C@@H](OC(C)=O)[C@@H]1OC(C)=O

## Output
32
128

Please look at the items below and tell me MIC for each one, in order.
1. CCOc1ccc(C(=O)O[C@H]2[C@H](Oc3c(-c4ccc(O)c(O)c4)oc4cc(O)cc(O)c4c3=O)O[C@H](CO)[C@@H](O)[C@@H]2OC(=O)c2ccc(OCC)cc2)cc1 [Compound 15e]
2. CCn1cc(C(=O)O)c(=O)c2cc(F)c(N3CCNCC3)cc21 [Norfloxacin, norfloxacin, reference compound]

## Output
1: 32; 2: 64

Measured values drawn from patent US8916526B2 for this set.
